Target: PPAR-α (Homo sapiens, UniProt Q07869)
Construct: expressed in transfected cells; host or cells: CV-1 (African green monkey kidney)
Sequence (Q07869 167-468): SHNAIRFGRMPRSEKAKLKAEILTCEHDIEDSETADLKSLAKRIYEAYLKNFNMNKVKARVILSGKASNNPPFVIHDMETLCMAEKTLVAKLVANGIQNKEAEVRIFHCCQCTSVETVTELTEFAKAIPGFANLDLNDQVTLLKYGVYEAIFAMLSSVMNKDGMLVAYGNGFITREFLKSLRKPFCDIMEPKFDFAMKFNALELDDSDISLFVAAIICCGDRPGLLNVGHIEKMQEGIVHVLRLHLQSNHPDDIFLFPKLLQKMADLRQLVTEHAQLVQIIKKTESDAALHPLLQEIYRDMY
Assay: Measurement of PPAR-α activity (GAL4 luciferase reporter assay in CV-1 cells)
Type: cell-based
Conditions: 100(A/B): A = maximum PPAR-α activity of test compound at 3, 10, 30 and 100 μM, B = activity of the compound of WO/2011/058154 at 100 μM, 18 to 20 hours, read-out: Relative fold induction (%) of PPAR α
Here the recorded Emax is given for each entry.
Enter the number, and then the unit.

Q: Requested read-out: Emax. Entry: CSc1cc(F)c(F)cc1-c1ccc(OCc2cccc(C(=O)N(CCNS(C)(=O)=O)CC(=O)O)c2)cc1 [Example 17]
A: 13%

Q: One more compound: COCCOCCN(CC(=O)O)C(=O)c1cccc(COc2ccc(-c3cc(F)c(F)cc3SC)cc2)c1 [Example 49]
A: 29%

Q: One more compound: CSc1cc(F)c(F)cc1-c1ccc(OCc2cccc(C(=O)N3C[C@H](O)C[C@H]3C(=O)O)c2)cc1 [Example 29]
A: 22%

Q: One more compound: NC(=O)CN(CC(=O)O)C(=O)c1cccc(COc2ccc(-c3cc(F)c(F)c4ccoc34)cc2)c1 [Example 1]
A: 12%

----------
Target: PPAR-α (Homo sapiens, UniProt Q07869)
Construct: expressed in transfected cells; host or cells: CV-1 (African green monkey kidney)
Assay: Measurement of PPAR-α activity (GAL4 luciferase reporter assay in CV-1 cells)
Type: cell-based
Conditions: 100(A/B): A = maximum PPAR-α activity of test compound at 3, 10, 30 and 100 μM, B = activity of the compound of WO/2011/058154 at 100 μM, 18 to 20 hours, read-out: Relative fold induction (%) of PPAR α
Counter-ions that a name gives are not always drawn.
Here the recorded Emax is given for each entry.
Could you give me the number in %? Just the number is fine.

Use the examples below as a reference point.
Q: Requested read-out: Emax. Entry: CSc1cc(F)c(F)cc1-c1ccc(OCc2cccc(C(=O)N(CC(=O)O)Cc3cn(C)cn3)c2)cc1 [Example 74]
A: 16

Q: One more compound: N#CCCN(CC(=O)O)C(=O)c1cccc(COc2ccc(-c3cc(F)c(F)c4ccoc34)cc2)c1 [Example 75]
A: 38

Q: One more compound: CSc1cc(F)c(F)cc1-c1ccc(OCc2cccc(C(=O)N3[C@@H](CO)CC[C@H]3C(=O)O)c2)cc1 [Example 64]
A: 20

Q: One more compound: CCNCCN(CC(=O)O)C(=O)c1cccc(COc2ccc(-c3cc(F)c(F)cc3SC)cc2)c1 [Example 43, Trifluoroacetate]
A: 9

Next:
Q: Requested read-out: Emax. Entry: CSc1cc(F)c(F)cc1-c1ccc(OCc2cccc(C(=O)N(CC(=O)O)Cc3cccnc3)c2)cc1 [Example 39, Trifluoroacetate]
A: 22

----------
Target: human GYS1 (glycogen synthase) (Homo sapiens)
Sequence (P13807 whole entry): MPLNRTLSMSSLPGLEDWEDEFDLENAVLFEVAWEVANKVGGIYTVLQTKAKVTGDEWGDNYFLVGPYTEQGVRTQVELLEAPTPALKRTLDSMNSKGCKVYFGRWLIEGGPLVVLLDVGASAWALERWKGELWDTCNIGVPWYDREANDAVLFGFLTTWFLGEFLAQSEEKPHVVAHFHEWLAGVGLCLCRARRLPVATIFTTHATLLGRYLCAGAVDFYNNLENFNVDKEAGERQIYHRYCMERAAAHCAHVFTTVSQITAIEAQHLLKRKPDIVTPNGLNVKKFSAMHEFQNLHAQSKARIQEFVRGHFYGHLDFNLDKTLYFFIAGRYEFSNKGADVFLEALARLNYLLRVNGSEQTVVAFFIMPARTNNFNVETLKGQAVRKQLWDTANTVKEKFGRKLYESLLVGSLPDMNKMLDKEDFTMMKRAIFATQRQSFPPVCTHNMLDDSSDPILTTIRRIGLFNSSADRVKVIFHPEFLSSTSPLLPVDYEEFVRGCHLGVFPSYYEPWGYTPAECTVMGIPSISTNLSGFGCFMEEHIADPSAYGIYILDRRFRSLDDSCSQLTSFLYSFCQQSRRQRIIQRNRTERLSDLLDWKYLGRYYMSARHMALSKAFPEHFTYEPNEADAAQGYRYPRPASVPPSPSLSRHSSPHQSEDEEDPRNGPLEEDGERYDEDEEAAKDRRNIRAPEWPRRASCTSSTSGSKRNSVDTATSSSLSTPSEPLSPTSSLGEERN
Test: Measurement of glycogen synthase activity
Settings: concentration causing 50% increase in relative activity; 100% = compound of Example 1 of WO/2011/058154 at 10 μM; 10 mM Glucose-6-phosphate; 37° C. for 25 minutes (Examples 1 to 61 and 67 to 82) or 20 minutes (Examples 62 to 66); absorbance at 340 nm
Values of EC50 strictly less than 20 nM map to criterion met, and values of at least 20 nM map to criterion not met.

// known answers, use as guide
Q: Identify whether the molecule CSc1cc(F)c(F)cc1-c1ccc(OCc2cccc(C(=O)N(CCNS(C)(=O)=O)CC(=O)O)c2)cc1 records EC50 below 20 nM.
A: criterion met

Q: One more molecule: CSc1cc(F)c(F)cc1-c1ccc(OCc2cccc(C(=O)N(CCn3cncn3)CC(=O)O)c2)cc1
A: criterion not met

Q: One more molecule: CSc1cc(F)c(F)cc1-c1ccc(OCc2cccc(C(=O)N(CCC#N)CC(=O)O)c2)cc1
A: criterion met

Q: One more molecule: CSc1cc(F)c(F)cc1-c1ccc(OCc2cccc(C(=O)N(CC(=O)O)CC3CCOCC3)c2)cc1
A: criterion not met

Q: One more molecule: CSc1cc(F)c(F)cc1-c1ccc(OCc2cccc(C(=O)N(CCS(C)(=O)=O)CC(=O)O)c2)cc1
A: criterion met

Next:
Q: Identify whether the molecule NC(=O)C1CC[C@@H](C(=O)O)N1C(=O)c1cccc(COc2ccc(-c3cc(F)c(F)c4ccoc34)cc2)c1 (single isomer, unassigned) [Example 4] records EC50 below 20 nM.
A: criterion met

Q: One more molecule: CSc1cc(F)c(F)cc1-c1ccc(OCc2cccc(C(=O)N(CC(=O)O)CC(=O)N3CCCC3)c2)cc1
A: criterion met

----------
Here the recorded Emax is given for each entry.
Molecular target: PPAR-α (Homo sapiens, UniProt Q07869)
Construct: expressed in transfected cells; host or cells: CV-1 (African green monkey kidney)
Assay: Measurement of PPAR-α activity (GAL4 luciferase reporter assay in CV-1 cells)
Assay type: cell-based
Conditions: 100(A/B): A = maximum PPAR-α activity of test compound at 3, 10, 30 and 100 μM, B = activity of the compound of WO/2011/058154 at 100 μM, 18 to 20 hours, read-out: Relative fold induction (%) of PPAR α
Structures can show the parent of a compound that is named as a salt.
Could you give me the number in %? Just the number is fine.

Q: Requested read-out: Emax. Entry: CSc1cc(F)c(F)cc1-c1ccc(OCc2cccc(C(=O)N(CCCN(C)C)CC(=O)O)c2)cc1 [Example 26, Trifluoroacetate]
A: 11

Q: One more compound: CSc1cc(F)c(F)cc1-c1ccc(OCc2cccc(C(=O)N(CC(=O)O)Cc3noc(C)n3)c2)cc1
A: 23

Next:
Q: Requested read-out: Emax. Entry: CCN(CC)CCN(CC(=O)O)C(=O)c1cccc(COc2ccc(-c3cc(F)c(F)cc3SC)cc2)c1 [Example 24, Trifluoroacetate]
A: 13

Q: One more compound: CSc1cc(F)c(F)cc1-c1ccc(OCc2cccc(C(=O)N(CCC#N)CC(=O)O)c2)cc1
A: 16

Q: One more compound: CSc1cc(F)c(F)cc1-c1ccc(OCc2cccc(C(=O)N(CCCS(C)(=O)=O)CC(=O)O)c2)cc1
A: 7.1

Q: One more compound: CNC(=O)CN(CC(=O)O)C(=O)c1cccc(COc2ccc(-c3cc(F)c(F)c4ccoc34)cc2)c1
A: 12

Q: One more compound: O=C(O)CN(C(=O)c1cccc(COc2ccc(-c3cc(F)c(F)c4ccoc34)cc2)c1)C1CCNC1=O (stereo not shown)
A: 11

Values from patent US20160046592A1
